The origin of these recorded values is paper PMC11597202.

target: CDK9/CyclinT (Homo sapiens, UniProt P50750); construct: host or cells: Sf9 insect cells (baculovirus); assay: ADP-Glo kinase inhibition assay, CDK9/CyclinT; format: biochemical; details: 10 μM compound; percentage of maximum activity of the DMSO control; mean n = 2; 10 µM ATP; read-out: Residual activity CDK9/CyclinT
Sequence (P50750 whole entry): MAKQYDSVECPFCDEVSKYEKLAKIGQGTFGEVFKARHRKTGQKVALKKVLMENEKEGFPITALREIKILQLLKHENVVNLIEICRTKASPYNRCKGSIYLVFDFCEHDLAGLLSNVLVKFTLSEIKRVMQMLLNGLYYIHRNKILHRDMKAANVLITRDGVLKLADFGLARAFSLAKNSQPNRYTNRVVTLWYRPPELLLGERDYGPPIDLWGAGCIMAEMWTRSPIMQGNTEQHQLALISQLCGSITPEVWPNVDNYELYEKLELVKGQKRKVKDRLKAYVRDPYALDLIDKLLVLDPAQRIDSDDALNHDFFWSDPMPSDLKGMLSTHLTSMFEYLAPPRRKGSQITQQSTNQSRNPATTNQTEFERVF
Sequence (O60563 whole entry partner): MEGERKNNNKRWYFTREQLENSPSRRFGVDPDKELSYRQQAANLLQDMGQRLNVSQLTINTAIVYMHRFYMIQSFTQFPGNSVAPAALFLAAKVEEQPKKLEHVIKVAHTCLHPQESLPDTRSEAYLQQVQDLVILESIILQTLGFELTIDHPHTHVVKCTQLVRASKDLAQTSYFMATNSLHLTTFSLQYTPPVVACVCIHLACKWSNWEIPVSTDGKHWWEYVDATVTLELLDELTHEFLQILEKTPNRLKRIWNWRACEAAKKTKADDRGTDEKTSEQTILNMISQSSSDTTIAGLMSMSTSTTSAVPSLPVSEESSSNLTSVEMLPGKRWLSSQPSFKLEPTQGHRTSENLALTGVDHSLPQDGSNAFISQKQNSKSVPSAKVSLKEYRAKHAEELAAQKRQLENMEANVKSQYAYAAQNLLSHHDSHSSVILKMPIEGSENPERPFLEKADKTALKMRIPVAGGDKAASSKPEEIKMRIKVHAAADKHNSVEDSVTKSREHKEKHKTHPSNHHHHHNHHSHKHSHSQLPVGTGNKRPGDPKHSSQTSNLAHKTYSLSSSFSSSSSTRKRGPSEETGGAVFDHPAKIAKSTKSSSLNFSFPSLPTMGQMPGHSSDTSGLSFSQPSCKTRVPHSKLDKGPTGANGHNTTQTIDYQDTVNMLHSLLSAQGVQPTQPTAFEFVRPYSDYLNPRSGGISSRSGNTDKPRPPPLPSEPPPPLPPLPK
Metric name: remaining activity at 10 µM (%)

| Compound | Metric name | Readout value |
| --- | --- | --- |
| COC(=N)c1nc2cc3ncnc(Nc4ccc(OC)cc4F)c3cc2s1 [Compound 15b] | remaining activity at 10 µM | 110 |
| COC(=N)c1nc2ccc3ncnc(Nc4ccc(OC)cc4F)c3c2s1 [Compound II, reference compound] | remaining activity at 10 µM | 59 |

A = COC(=N)c1nc2c(ccc3c(=O)n(Cc4ccccc4)cnc32)s1
B = COC(=N)c1nc2ccc3ncn(Cc4ccccc4)c(=O)c3c2s1 [Compound I, reference compound]
Exercise: Short answer wanted: higher remaining activity at 10 µM, A or B ? Returns: label corresponding to the selected item.
Key: A
(A: 101%, B: 41%)
